Target: EBP (Homo sapiens, UniProt Q15125)
Construct: HEK293T cells were utilized as the source of EBP enzyme; endogenous in cells
Sequence (Q15125 whole entry): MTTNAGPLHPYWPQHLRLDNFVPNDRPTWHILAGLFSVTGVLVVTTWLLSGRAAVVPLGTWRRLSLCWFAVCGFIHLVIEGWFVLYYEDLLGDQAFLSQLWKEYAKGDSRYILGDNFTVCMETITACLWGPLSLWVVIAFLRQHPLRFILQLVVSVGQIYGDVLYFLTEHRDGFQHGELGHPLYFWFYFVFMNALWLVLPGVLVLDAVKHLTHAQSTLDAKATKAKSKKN
Assay: EBP Functional Assay (EBP immunoaffinity LC-MS assay)
Details: EBP enzyme from HEK293T cells; 30 min with inhibitor, then zymosterol-d5, 37° C., 4 h; percent conversion to dehydrolathosterol-d5 by LC-APCI MRM MS
reported.metric: IC50

Entry O=S(=O)(c1ccc(OC(F)F)cc1)N1CCOC2(CCN(CC3CCOCC3)C2)C1 (centres unmarked) — recorded IC50 = 250 to 4000 nM

Record summary for Cc1nc(C(F)(F)F)ccc1S(=O)(=O)N1CC2(CN(CC3CC3C#N)C2)C1 (centres unmarked) : reported IC50 = 250 to 4000 nM

Note to self: IC50 recorded for Cn1nc(C2CC2)cc1S(=O)(=O)N1CC2(CN(CC3CCOCC3)C2)C1 was 100 to 250 nM

Lab note: measured IC50 of Cc1nc(C2(C(F)(F)F)CC2)ccc1S(=O)(=O)N1CC2(CN(CC3CCOCC3)C2)C1 was < 100 nM

For this molecule ( Cc1nc(C(C)(C)F)ccc1S(=O)(=O)N1CC2(CN(C3CC4(COC4)C3)C2)C1 ), measured IC50 is < 100 nM

// recorded IC50 for Cc1nc(C(F)(F)F)ccc1S(=O)(=O)N1CC2(CN(CCC3CC3)C2)C1 : < 100 nM

Reported IC50 of Cc1nc(C(F)(F)F)ccc1S(=O)(=O)N1CC2(CN(C3CCC(F)(F)CC3)C2)C1 : < 100 nM

Recorded IC50 (molecule Cc1nc(C(C)(F)F)ccc1S(=O)(=O)N1CC2(CN(C3CCCOC3)C2)C1 (centres unmarked) ): 250 to 4000 nM
